target: human CB2R (Homo sapiens, UniProt P34972); construct: host or cells: CHO cells; test: CB2R mediated modulation of cAMP synthesis; type: cell-based
Sequence (P34972 whole entry): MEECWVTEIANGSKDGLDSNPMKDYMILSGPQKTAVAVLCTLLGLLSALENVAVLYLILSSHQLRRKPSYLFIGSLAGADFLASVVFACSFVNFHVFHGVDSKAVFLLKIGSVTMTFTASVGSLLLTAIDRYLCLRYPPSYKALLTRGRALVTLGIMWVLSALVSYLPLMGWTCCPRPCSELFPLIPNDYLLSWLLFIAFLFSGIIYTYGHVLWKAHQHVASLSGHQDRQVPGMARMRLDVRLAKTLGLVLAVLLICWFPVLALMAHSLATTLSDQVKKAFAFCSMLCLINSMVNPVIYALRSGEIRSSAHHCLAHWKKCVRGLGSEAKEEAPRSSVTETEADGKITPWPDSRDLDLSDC
pEC50: −log10 of the molar value.
Dear colleague, classification is by pEC50, with ranges listed here: bin A = under 8, bin B = from 8 up to 9, bin C = 9 and over

Here's what some known entries look like.
[[record]]
compound = "CC(C)(C)C(=O)CS(=O)(=O)C(C)(C)C(=O)Nc1cc(C(C)(C)C)on1"
tested_system = "human CB2R (Homo sapiens, UniProt P34972)"
class_name = "bin A"

[[record]]
compound = "CC(C)(C)c1cc(NC(=O)C(C)(C)S(=O)(=O)C2CCCCC2)no1"
tested_system = "human CB2R (Homo sapiens, UniProt P34972)"
class_name = "bin C"

[[record]]
compound = "CCc1sc(NC(=O)C(C)(C)S(=O)(=O)CC2CCOCC2)nc1-c1ccccc1"
tested_system = "human CB2R (Homo sapiens, UniProt P34972)"
class_name = "bin B"

[[record]]
compound = "CC(C)(C)c1cc(NC(=O)C(C)(C)S(=O)(=O)CC2CCCCO2)no1 (stereo not shown)"
tested_system = "human CB2R (Homo sapiens, UniProt P34972)"
class_name = "bin C"

[[record]]
compound = "CC(C)(C)c1cc(NC(=O)C(C)(C)S(=O)(=O)CC2CCOC2)on1 (stereo not shown)"
tested_system = "human CB2R (Homo sapiens, UniProt P34972)"
class_name = "bin A"

[[record]]
compound = "CC(C)(C)Cc1cc(NC(=O)C(C)(C)S(=O)(=O)CC2CCOCC2)on1"
tested_system = "human CB2R (Homo sapiens, UniProt P34972)"
class_name = "bin A"


API: the following record is the query input.
Sort into band: `CC(C)(C)c1cc(NC(=O)C(C)(C)S(=O)(=O)CC2CCOCC2)on1`
bin B

====

Examples of compounds with documented EC50 follow.
molecular target: human CB2R (Homo sapiens, UniProt P34972); construct: host or cells: CHO cells; test: CB2R mediated modulation of cAMP synthesis; assay type: cell-based
All answers are understood in nM, so give the number only.

Below, 4 compounds whose answers are already recorded.
[[record]]
compound = "CC(C)(C)c1cc(NC(=O)C(C)(C)S(=O)(=O)CC2CCCCC2)on1"
property = "EC50"
u = "nM"
readout_value = 0.1

[[record]]
compound = "CC(C)S(=O)(=O)C(C)(C)C(=O)Nc1nc(-c2ccc(Cl)cc2)cs1"
property = "EC50"
u = "nM"
readout_value = 44.9

[[record]]
compound = "CC(C)(C(=O)Nc1ccc(C(F)(F)F)cn1)S(=O)(=O)CC1CCCCC1"
property = "EC50"
u = "nM"
readout_value = 15.4

[[record]]
compound = "CC(C)(C(=O)Nc1nc(C2CCCCC2)cs1)S(=O)(=O)CC1CCOCC1"
property = "EC50"
u = "nM"
readout_value = 8.3


Continue with the compound presented below.
API: value(readout=EC50, system=human CB2R (Homo sapiens, UniProt P34972)) for record `CC(C)(C(=O)Nc1nsc(-c2ccccc2)n1)S(=O)(=O)CC1CCOCC1`
17.6

====

target: human CB2R (Homo sapiens); construct: host or cells: CHO cells; assay: CB2R mediated modulation of cAMP synthesis; format: cell-based
Rule for this label: True means EC50 is less than 40 nM; False means EC50 is at least 40 nM.

[[record]]
compound = "CCC(C)S(=O)(=O)C(C)(C)C(=O)Nc1cc(C(C)(C)C)no1 (centres unmarked)"
class_name = "True"

[[record]]
compound = "CC(C)(C)C(=O)CS(=O)(=O)C(C)(C)C(=O)Nc1ccc(C(F)(F)F)cn1"
class_name = "False"

[[record]]
compound = "CC(C)(C(=O)Nc1cnc2ccccc2c1)S(=O)(=O)CC1CCOCC1"
class_name = "False"


For this compound, is EC50 lower than 40 nM? `Cn1nc(C(C)(C)C)cc1NC(=O)C(C)(C)S(=O)(=O)C1CCCCCC1`
True

# check: EC50 < 40 nM for `CC(C)(C)c1cc(NC(=O)C(C)(C)S(=O)(=O)Cc2ccc(F)cc2)on1`
True
